test system: phosphorylated CRTC3 in THP1 lysates; test: Immunoblotting of lysates of macrophage-differentiated, LPS-stimulated THP1 cells, untreated or incubated with dasatinib; assay type: binding, human; conditions: recombinant mAb; THP1 lysates not incubated with a SIK inhibitor (lane 3)
TEST_READOUT: immunoblot signal at the expected molecular size in THP1 lysates

MOLECULE	REPORTED_VALUE
mAb #157: anti-phospho-Serine370 CRTC3 monoclonal antibody from rabbit hybridoma; VH SEQ ID NO: 31, VL SEQ ID NO: 32 (antibody, V domains shown) VH: QEQLKESGGGLFKPMDILTVTCTVSGISLSSYGLSWVRQAPGNGLEWIGAIGASGSAYYASWAKSRSTITRNTNLNTVTLKMTSLTAADTATYFCKRNYIWGPGTLVTVSS VL: AQVLTQTASPVSAAVGGTVTINCQASQSVYSDNRLSWYQQKPGQPPKLLIYEASKLASGVPPRFSGSGSGTQFTLAISGVQCDDAATYYCQGSYDCNSADCSAFGGGTEVVVK	strong signal
mAb #21: anti-phospho-Serine329 CRTC3 monoclonal antibody from rabbit hybridoma; VH SEQ ID NO: 99, VL SEQ ID NO: 100 (antibody, V domains shown) VH: QSVEESGGRLVTPGTPLTLTCTVSGIDLSSNTVSWVRQAPGKGLEWIGVSGYSGRPYYASWAKGRFTISKTSSTVHLKITSPTAEDTATYFCARGSVNVNIWGPGTLVTVSS VL: AQVLTQTASPVSAAVGGTVTINCQSSQSVYSSNRLSWFQQKPGQPPKLLMYYTSTLASGVPSRFKGSGSGTEFTLTISGVQCDDAATYYCLGGYDCDIADCSAFGGGTEVVVK	strong signal
mAb #170: anti-phospho-Serine370 CRTC3 monoclonal antibody from rabbit hybridoma; VH SEQ ID NO: 65, VL SEQ ID NO: 66 (antibody, V domains shown) VH: QSMKESEGGLFKPTDTLTLTCTVSGFSLSRYGVIWVRQAPGKGLEFIGYISSTGSTYYASWAKSRSTITRNTNENTVTLKVTSLTAADTATYFCAQSGLGYDGGRNIWGPGTLVTVSS VL: AAVLTQTPSPVSAAVGGTVSISCQSSKSVANSNWLSWYQQKPGQPPKLLIYSASTLASGAPSRFKGSGSGTQFTLTISDVQCDDAATYYCAGGYSDISDIFGFGGGTEVVVK	strong signal
